Data origin, for the record: the RNAGym collection of RNA variant scans (doi:10.7554/elife.90254)

B1: OR4K15 (parent)
chain: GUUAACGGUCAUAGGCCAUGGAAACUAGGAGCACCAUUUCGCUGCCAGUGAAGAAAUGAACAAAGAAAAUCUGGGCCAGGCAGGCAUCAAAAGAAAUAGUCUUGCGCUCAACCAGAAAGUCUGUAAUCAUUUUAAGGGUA

Variants of: B1
assayText: self-cleavage, relative activity (ratio to wild type); higher = more cleavage; in vitro, sequencing; the parent is a self-cleaving ribozyme
experimentalReadout: self-cleavage
Lab note: write the figure by itself, no unit.

Previously resolved entries follow.
Task: Supply reported self-cleavage belonging to this variant: `G1U`
Result: 1.07

Task: Supply reported self-cleavage belonging to this variant: A13G U124C
Result: 0.57

Task: Supply reported self-cleavage belonging to this variant: A89G U100A
Result: 0.5

Task: Supply reported self-cleavage belonging to this variant: A36C G104A
Result: 0.03

Task: Supply reported self-cleavage belonging to this variant: A24G C46U
Result: 0.73

New cases:
Task: Supply reported self-cleavage belonging to this variant: A36G A116U
Result: 1

Task: Supply reported self-cleavage belonging to this variant: `G136A`
Result: 1.34

Task: Supply reported self-cleavage belonging to this variant: U39A A126G
Result: 1.59
